Data provenance is patent US10392404B2.

Biological target: C-RAF (Homo sapiens, UniProt P04049, Y340E/Y341E)
Construct: His tag (implied by nickel chromatography) (cleaved yes); StrepII tag (cleaved yes); MEK1 substrate from E. coli
Sequence (P04049 whole entry Y340E/Y341E): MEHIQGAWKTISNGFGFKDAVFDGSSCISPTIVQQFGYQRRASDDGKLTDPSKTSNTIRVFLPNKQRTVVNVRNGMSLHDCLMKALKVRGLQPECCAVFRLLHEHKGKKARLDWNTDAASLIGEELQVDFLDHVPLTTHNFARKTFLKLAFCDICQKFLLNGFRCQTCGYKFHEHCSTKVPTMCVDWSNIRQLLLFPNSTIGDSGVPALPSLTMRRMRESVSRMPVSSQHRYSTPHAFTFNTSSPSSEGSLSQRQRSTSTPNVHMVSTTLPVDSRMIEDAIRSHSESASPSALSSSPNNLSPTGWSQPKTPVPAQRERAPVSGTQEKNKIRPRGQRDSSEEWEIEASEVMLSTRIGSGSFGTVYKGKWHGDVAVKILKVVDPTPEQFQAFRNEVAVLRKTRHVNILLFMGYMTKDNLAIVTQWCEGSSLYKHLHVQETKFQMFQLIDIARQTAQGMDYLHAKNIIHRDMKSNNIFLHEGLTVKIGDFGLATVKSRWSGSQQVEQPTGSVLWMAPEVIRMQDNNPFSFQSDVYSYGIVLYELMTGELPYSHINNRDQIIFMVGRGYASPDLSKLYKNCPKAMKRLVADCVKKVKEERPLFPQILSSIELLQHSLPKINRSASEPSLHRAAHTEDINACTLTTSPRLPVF
Sequence (P63104 whole entry partner): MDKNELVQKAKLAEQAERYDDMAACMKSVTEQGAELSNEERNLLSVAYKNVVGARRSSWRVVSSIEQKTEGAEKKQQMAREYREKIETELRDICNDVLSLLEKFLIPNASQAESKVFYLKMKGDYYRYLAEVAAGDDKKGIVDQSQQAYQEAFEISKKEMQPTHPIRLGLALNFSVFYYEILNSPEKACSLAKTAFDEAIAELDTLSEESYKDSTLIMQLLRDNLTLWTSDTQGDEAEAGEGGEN
Test: In vitro Raf activity determination (Alpha Screen, biotinylated kinase-dead MEK1 substrate), C-Raf
Settings: c-Raf approximately 4 nM; ATP 1 μM; pre-incubation 60 minutes; reaction 1 hour at room temperature
pIC50: −log10 of the molar value.
readout kind: pIC50

                                smiles_data  observed_measurement
0  Cc1ccc(NC(=O)c2ccnc(C(F)(F)F)c2)cc1-c1cnc(S(C)(=O)=O)c(C#N)c1                  8.68

a: Cc1ccc(NC(=O)c2ccnc(C(C)(C)C#N)c2)cc1-c1cnc(N)c(C#N)c1
b: Cc1ncc(NC(=O)c2ccnc(C(C)(C)C#N)c2)cc1-c1cnc(N2CCOC[C@H]2C)c(C#N)c1
c: Cc1ccc(NC(=O)c2ccnc(C3CC3)c2)cc1-c1cnc(N2CCNCC2)c(C#N)c1
Sort by pIC50, descending. # answer = labels listed in requested order
c, a, b
(c: 9.70, a: 9.18, b: 8.82)

---

Molecular target: b-Raf (V600E) (Homo sapiens, UniProt P15056, V600E)
Sequence (P15056 whole entry V600E): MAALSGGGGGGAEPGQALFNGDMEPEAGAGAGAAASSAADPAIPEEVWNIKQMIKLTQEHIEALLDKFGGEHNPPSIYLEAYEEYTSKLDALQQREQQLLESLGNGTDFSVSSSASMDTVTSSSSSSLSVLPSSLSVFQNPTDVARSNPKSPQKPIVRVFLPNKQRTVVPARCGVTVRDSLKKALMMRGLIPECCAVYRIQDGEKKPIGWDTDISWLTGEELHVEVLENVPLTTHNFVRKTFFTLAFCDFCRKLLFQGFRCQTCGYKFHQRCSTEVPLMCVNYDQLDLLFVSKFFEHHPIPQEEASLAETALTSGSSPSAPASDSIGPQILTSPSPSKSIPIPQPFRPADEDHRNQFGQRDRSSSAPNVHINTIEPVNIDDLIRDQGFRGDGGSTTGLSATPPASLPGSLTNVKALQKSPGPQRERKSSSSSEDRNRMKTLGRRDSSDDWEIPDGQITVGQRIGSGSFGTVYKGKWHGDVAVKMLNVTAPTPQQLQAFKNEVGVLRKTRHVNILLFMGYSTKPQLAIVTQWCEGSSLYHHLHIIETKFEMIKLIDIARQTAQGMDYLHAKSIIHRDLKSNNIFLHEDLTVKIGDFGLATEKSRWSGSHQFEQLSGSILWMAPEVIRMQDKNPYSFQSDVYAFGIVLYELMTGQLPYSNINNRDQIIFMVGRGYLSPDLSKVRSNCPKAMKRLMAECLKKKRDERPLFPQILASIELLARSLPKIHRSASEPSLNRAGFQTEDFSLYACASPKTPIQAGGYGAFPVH
Test: In vitro Raf activity determination (Alpha Screen, biotinylated kinase-dead MEK1 substrate), B-Raf
Settings: b-Raf (V600E) approximately 4 pM; ATP 10 μM; pre-incubation 60 minutes; reaction 3 hours at room temperature
pIC50: −log10 of the molar value.
readout kind: pIC50

A: Cc1ccc(NC(=O)c2ccnc(C(F)F)c2)cc1-c1cnc(-c2cnn(C)c2)c(C#N)c1
B: Cc1ncc(NC(=O)c2cccc(S(C)(=O)=O)c2)cc1-c1cnc(N2CC(C)(O)C2)c(C#N)c1
C: Cc1ncc(NC(=O)c2cnnc(C(C)(C)C#N)c2)cc1-c1cnc(N2CC(C)(O)C2)c(C#N)c1
D: Cc1ncc(NC(=O)c2ccnc(C(C)(C)O)c2)cc1-c1cnc(NC2CCOCC2)c(C#N)c1
Ranking request: pIC50, max to min, items above. # answer = labels listed in requested order
A, D, B, C

---

Target: C-RAF (Homo sapiens, UniProt P04049, Y340E/Y341E)
Construct: His tag (implied by nickel chromatography) (cleaved yes); StrepII tag (cleaved yes); MEK1 substrate from E. coli
Assay: In vitro Raf activity determination (Alpha Screen, biotinylated kinase-dead MEK1 substrate), C-Raf
Conditions: c-Raf approximately 4 nM; ATP 1 μM; pre-incubation 60 minutes; reaction 1 hour at room temperature
pIC50: −log10 of the molar value.
readout kind: pIC50

In [3]: df
Out[3]:
                                smiles_data  observed_measurement
0  Cc1ccc(NC(=O)c2cccc(C(F)(F)F)c2)cc1-c1cnc(-c2cnn(C)c2)c(C#N)c1                  9.82
1  Cc1ccc(NC(=O)c2cc(C(C)(C)F)ccn2)cc1-c1cnc(N2CCOCC2)c(C#N)c1                  9.27
2  Cc1ncc(NC(=O)c2cccc(S(C)(=O)=O)c2)cc1-c1cnc(N(C)C)c(C#N)c1                  9.31
3  Cc1ncc(NC(=O)c2ccnc(C(C)(C)C#N)c2)cc1-c1cnc(N2CC(O)C2)c(C#N)c1                  8.57
4  Cc1ccc(NC(=O)c2ccnc(C(C)(C)C#N)c2)cc1-c1cnc(N)c(C#N)c1C                  8.18

P: Cc1ncc(NC(=O)c2ccnc(C(C)(C)C#N)c2)cc1-c1cnc(-c2ccn(C)n2)c(C#N)c1
Q: Cc1ccc(NC(=O)c2ccnc(C(C)(C)O)c2)cc1-c1cnc(N2CC(C)(O)C2)c(C#N)c1
R: Cc1ncc(NC(=O)c2cc(C(C)(C)F)ccn2)cc1-c1cnc(N2CCOCC2)c(C#N)c1
Sort by pIC50, descending. # answer = labels listed in requested order
R, Q, P
(R: 9.27, Q: 8.89, P: 8.56)

---

Target: b-Raf (V600E) (Homo sapiens, UniProt P15056, V600E)
Assay: In vitro Raf activity determination (Alpha Screen, biotinylated kinase-dead MEK1 substrate), B-Raf
Conditions: b-Raf (V600E) approximately 4 pM; ATP 10 μM; pre-incubation 60 minutes; reaction 3 hours at room temperature
pIC50: −log10 of the molar value.
readout kind: pIC50

Below, each entry is followed by its recorded pIC50 result.
                                   compound  readout_kind  observed_measurement
0  Cc1ccc(NC(=O)c2ccnc(S(C)(=O)=O)c2)cc1-c1cnc(C2CCOCC2)c(C#N)c1 [Example 138]         pIC50                  8.38
1  Cc1ccc(NC(=O)c2ccnc(C(C)(C)O)c2)cc1-c1cnc(N2CCOCC2)c(C#N)c1 [Example 165]         pIC50                  8.91
2  Cc1ncc(NC(=O)c2cc(C(C)(C)F)ccn2)cc1-c1cnc(N2CCOCC2)c(C#N)c1 [Example 242]         pIC50                  8.50

a: Cc1ccc(NC(=O)c2ccnc(C(F)(F)F)c2)cc1-c1cnc(N(C)C)c(C#N)c1 [Example 25]
b: Cc1ccc(NC(=O)c2ccnc(C(C)(C)C#N)c2)cc1-c1cnc(N)c(C#N)c1C [Example 9]
Consider a and b . Which of these has its pIC50 at a higher number? To answer, give the label that identifies your chosen option.
a

1: Cc1ccc(NC(=O)c2cccc(C(F)(F)F)c2)cc1-c1cc(C#N)cnc1N [Example 13]
2: CCNc1ncc(-c2cc(NC(=O)c3ccnc(C(F)(F)F)c3)ccc2C)cc1C#N [Example 24]
3: Cc1ncc(NC(=O)c2ccnc(C(F)F)c2)cc1-c1cnc(C2CCOCC2)c(C#N)c1 [Example 129]
Provide the items ranked by increasing pIC50. # answer = labels listed in requested order
3, 1, 2
(3: 7.62, 1: 8.25, 2: 9.09)

A: CNc1ncc(-c2cc(NC(=O)c3cccc(C(F)(F)F)c3)cnc2C)cc1C#N [Example 8]
B: Cc1ccc(NC(=O)c2ccnc(C(C)(F)F)c2)cc1-c1cnc(N2CCNCC2)c(C#N)c1 [Example 161]
C: Cc1ccc(NC(=O)c2ccnc(S(C)(=O)=O)c2)cc1-c1cnc(N2CC(C)(O)C2)c(C#N)c1 [Example 217]
D: Cc1ncc(NC(=O)c2cc(C(F)(F)F)nn2C)cc1-c1cnc(N(C)C)c(C#N)c1 [Example 267]
E: Cc1cc(CC(=O)Nc2cnc(C)c(-c3cnc(N(C)C)c(C#N)c3)c2)on1 [Example 268]
Provide the items ranked by increasing pIC50. # answer = labels listed in requested order
D, E, C, A, B

---

Target: b-Raf (V600E) (Homo sapiens, UniProt P15056, V600E)
Test: In vitro Raf activity determination (Alpha Screen, biotinylated kinase-dead MEK1 substrate), B-Raf
Details: b-Raf (V600E) approximately 4 pM; ATP 10 μM; pre-incubation 60 minutes; reaction 3 hours at room temperature
readout kind: IC50 (nM)

In [3]: df
Out[3]:
                                smiles_data  observed_measurement
0  Cc1ncc(NC(=O)c2ccnc(C(F)(F)F)c2)cc1-c1cnc(C2CCOCC2)c(C#N)c1                  3.11
1  Cc1ncc(NC(=O)c2ccnc(C(C)(C)O)c2)cc1-c1cnc(N2CCOCC2)c(C#N)c1                  6.91
2  Cc1ccc(NC(=O)c2ccnc(C(F)(F)F)c2)cc1-c1cnc(N2CCOCC2)c(C#N)c1                 0.477
3  CNc1ncc(-c2cc(NC(=O)c3ccnc(C(C)(C)C#N)c3)ccc2C)cc1C#N                  2.18
4  Cc1ncc(NC(=O)c2ccnc(C(F)F)c2)cc1-c1cnc(N2CC(C)(O)C2)c(C#N)c1                  58.8
5  Cc1ncc(NC(=O)c2ccnc(C(F)(F)F)c2)cc1-c1cnc(-c2cccnc2)c(C#N)c1                  3.16

P: Cc1ccc(NC(=O)c2ccnc(C(F)(F)F)c2)cc1-c1cnc(N2CCNCC2)c(C#N)c1
Q: COCCOc1ncc(-c2cc(NC(=O)c3ccnc(C(F)(F)F)c3)cnc2C)cc1C#N
R: Cc1ncc(NC(=O)c2ccnc(C(F)(F)F)c2)cc1-c1cnc(NC2CCOCC2)c(C#N)c1
S: Cc1ncc(NC(=O)c2ccnc(C(C)(C)C#N)c2)cc1-c1cnc(OC(C)C)c(C#N)c1
T: CCn1cc(C(=O)Nc2cnc(C)c(-c3cnc(N(C)C)c(C#N)c3)c2)c(C)n1
Sort by IC50, descending. # answer = labels listed in requested order
T, S, Q, R, P

A: Cc1ncc(NC(=O)c2ccnc(C(C)(C)C#N)c2)cc1-c1cnc(N2CC(O)C2)c(C#N)c1
B: Cc1ncc(NC(=O)c2ccnc(C(C)(C)C#N)c2)cc1-c1cnc(N2CCO[C@H](C)C2)c(C#N)c1
C: COCCNc1ncc(-c2cc(NC(=O)c3cccc(C(F)F)c3)cnc2C)cc1C#N
D: Cc1ccc(NC(=O)c2cccc(C(F)(F)F)c2)cc1-c1cnc(-c2cnn(C)c2)c(C#N)c1
E: Cc1ccc(NC(=O)c2cnnc(C(F)(F)F)c2)cc1-c1cnc(N2CCNCC2)c(C#N)c1
Sort by IC50, descending. # answer = labels listed in requested order
A, E, B, C, D
